# measured on: GST-tagged truncated human mutant G2019S LRRK2 (Homo sapiens, UniProt Q5S007, G2019S)
# Construct: GST-tagged truncated human mutant G2019S LRRK2; purchased Life Technologies Corporation (Carlsbad, CA)
# Sequence (Q5S007 970-2527 G2019S limits assumed): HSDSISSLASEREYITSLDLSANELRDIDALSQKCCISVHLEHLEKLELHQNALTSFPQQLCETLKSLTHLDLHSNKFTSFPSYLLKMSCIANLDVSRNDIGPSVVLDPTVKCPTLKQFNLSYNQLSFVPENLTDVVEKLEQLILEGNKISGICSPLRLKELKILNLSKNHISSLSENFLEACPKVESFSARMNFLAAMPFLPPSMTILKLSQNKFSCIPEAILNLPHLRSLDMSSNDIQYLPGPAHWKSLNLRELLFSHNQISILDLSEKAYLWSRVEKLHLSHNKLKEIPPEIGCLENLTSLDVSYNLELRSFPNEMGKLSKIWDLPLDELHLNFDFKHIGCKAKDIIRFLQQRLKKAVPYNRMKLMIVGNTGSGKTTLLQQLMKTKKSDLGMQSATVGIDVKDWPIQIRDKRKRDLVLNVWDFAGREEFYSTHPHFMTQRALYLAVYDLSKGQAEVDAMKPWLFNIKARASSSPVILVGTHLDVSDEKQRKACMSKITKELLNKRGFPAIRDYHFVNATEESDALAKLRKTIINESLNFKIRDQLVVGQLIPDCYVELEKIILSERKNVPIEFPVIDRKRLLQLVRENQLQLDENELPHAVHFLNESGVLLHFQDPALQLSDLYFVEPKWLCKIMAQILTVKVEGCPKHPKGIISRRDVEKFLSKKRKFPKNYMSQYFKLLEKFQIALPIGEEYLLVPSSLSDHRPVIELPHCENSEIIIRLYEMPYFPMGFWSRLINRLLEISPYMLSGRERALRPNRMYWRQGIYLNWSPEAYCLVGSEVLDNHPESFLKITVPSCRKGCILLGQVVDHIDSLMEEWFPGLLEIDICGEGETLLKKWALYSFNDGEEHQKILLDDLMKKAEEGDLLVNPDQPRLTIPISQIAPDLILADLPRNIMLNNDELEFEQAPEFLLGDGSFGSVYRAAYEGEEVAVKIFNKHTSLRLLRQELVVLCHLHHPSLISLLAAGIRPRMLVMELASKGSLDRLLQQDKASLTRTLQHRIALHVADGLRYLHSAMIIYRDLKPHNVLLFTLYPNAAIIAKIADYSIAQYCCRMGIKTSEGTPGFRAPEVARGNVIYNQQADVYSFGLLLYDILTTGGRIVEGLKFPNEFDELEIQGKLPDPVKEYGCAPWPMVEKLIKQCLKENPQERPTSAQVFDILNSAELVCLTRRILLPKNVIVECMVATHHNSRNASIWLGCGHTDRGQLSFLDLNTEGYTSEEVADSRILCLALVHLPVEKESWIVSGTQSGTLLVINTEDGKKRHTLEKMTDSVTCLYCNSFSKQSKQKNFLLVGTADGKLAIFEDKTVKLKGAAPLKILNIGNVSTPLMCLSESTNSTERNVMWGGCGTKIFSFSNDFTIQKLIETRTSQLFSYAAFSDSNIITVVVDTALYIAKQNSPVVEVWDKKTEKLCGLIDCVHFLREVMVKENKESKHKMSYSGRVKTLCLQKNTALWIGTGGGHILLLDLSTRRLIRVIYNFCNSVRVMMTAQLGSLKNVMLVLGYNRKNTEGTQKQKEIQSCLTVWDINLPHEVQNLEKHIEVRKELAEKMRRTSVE
# assay info: LRRK2 G2019S Km ATP LanthaScreen assay
# Assay type: biochemical
# experimental parameters: 134 μM ATP (Km ATP), LRRKtide substrate, mean of several tests, read-out: LRRK2 pIC50 (converted)
# Description: Unless otherwise noted, all reactions are magnetically stirred. Unless otherwise noted, when diethyl ether is used in the experiments described below, it is Fisher ACS certified material and is stabilized with BHT. Unless otherwise noted, “concentrated” and/or “solvent removed under reduced pressure” means evaporating the solvent from a solution or mixture using a rotary evaporator or vacuum pump. […]
Quick list: IC50 per entry.
Quick note: number first, unit second.

Below are worked cases with known answers.
>>> print(df.to_string())
                                   molecule  test_result
0  CC1(N2CCN(c3cc4cc(NC(=O)C5CC5C(F)F)ncc4cc3Cl)CC2)COCC1F (single isomer, unassigned) [Ex-10.77]    0.0813 nM
1  CC1(N2CCN(c3cc4cc(NC(=O)C5CC56CCOCC6)ncc4cc3Cl)CC2)COCC1C#N (racemic)     0.912 nM
2  C[C@H]1CN(C2(C)COCC2O)CCN1c1cc2cc(NC(=O)C3CC34CCOCC4)ncc2cc1Cl (single isomer, unassigned) [Ex-14.1]      87.1 nM
3  CC1(N2CCN(c3cc4cc(NC(=O)C56CC(C5)C6)ncc4cc3Cl)CC2)COCC1O (single isomer, unassigned)      2.88 nM
4  CC1(N2CCN(c3cc4cc(NC(=O)C5CC56CCOC6)ncc4cc3Cl)CC2)COCC1O (single isomer, unassigned) [Ex-2.11]      1.45 nM

Shift focus to the following entry.
Problem: # get_value(readout='IC50', item= COC1CC(C(=O)Nc2cc3cc(N4CCN(C5(C)COCC5O)CC4)c(Cl)cc3cn2)C1 (single isomer, unassigned) [Ex-7.1] )
Solution: 0.832 nM

###

# measured on: GST-tagged truncated human mutant G2019S LRRK2 (Homo sapiens, UniProt Q5S007, G2019S)
# Construct: GST-tagged truncated human mutant G2019S LRRK2; purchased Life Technologies Corporation (Carlsbad, CA)
# assay info: LRRK2 G2019S Km ATP LanthaScreen assay
# Type: biochemical
# experimental parameters: 134 μM ATP (Km ATP), LRRKtide substrate, mean of several tests, read-out: LRRK2 pIC50 (converted)
outcome measure: IC50

In [3]: df
Out[3]:
                                   compound                               measured_on  test_result
0  CC1(N2CCN(c3cc4cc(NC(=O)C5CC56CC6)ncc4cc3Cl)CC2)COCC1F (single isomer, unassigned) [Ex-10.79]  GST-tagged truncated human mutant G2019S LRRK2 (Homo sapiens, UniProt Q5S007, G2019S)    0.0813 nM
1  CC1(N2CCN(c3cc4cc(NC(=O)C5CCC(F)(F)CO5)ncc4cc3Cl)CC2)COCC1O (single isomer, unassigned) [Ex-10.2]  GST-tagged truncated human mutant G2019S LRRK2 (Homo sapiens, UniProt Q5S007, G2019S)     0.676 nM
2  Cc1cc2cnc(NC(=O)C3CC3c3cnn(C)c3C(F)(F)F)cc2cc1N1CCN(C2(C)CCOC2)CC1 (single isomer, unassigned) [Ex-10.36]  GST-tagged truncated human mutant G2019S LRRK2 (Homo sapiens, UniProt Q5S007, G2019S)       107 nM
3  Cc1cc2cnc(NC(=O)C3C4CCOCC43)cc2cc1N1CCN(C2(C)CCOC2)CC1 (single isomer, unassigned) [Ex-10.47]  GST-tagged truncated human mutant G2019S LRRK2 (Homo sapiens, UniProt Q5S007, G2019S)      10.2 nM
4  Cn1ncc(C2CC2C(=O)Nc2cc3cc(N4CCN(C5(C)COCC5O)CC4)c(Cl)cc3cn2)n1 (single isomer, unassigned) [Ex-16.1]  GST-tagged truncated human mutant G2019S LRRK2 (Homo sapiens, UniProt Q5S007, G2019S)     0.145 nM

Problem: # get_value(readout='IC50', item= CC1(C)C(C(=O)Nc2cc3cc(N4CCN(C5(C)COCC5O)CC4)c(Cl)cc3cn2)C1C1CCCCO1 (single isomer, unassigned) [Ex-10.92] )
Solution: 1.95 nM

Problem: # get_value(readout='IC50', item= COC1COCC1(C)N1CCN(c2cc3cc(NC(=O)C4CC45CCOCC5)ncc3cc2Cl)CC1 (single isomer, unassigned) [Ex-5.3] )
Solution: 0.372 nM

Problem: # get_value(readout='IC50', item= CCC1C(C(=O)Nc2cc3cc(N4CCN(C5(C)CCOC5)CC4)c(C)cc3cn2)C1c1cnn(C)c1 (single isomer, unassigned) [Ex-10.38] )
Solution: 0.759 nM

Problem: # get_value(readout='IC50', item= C[C@H]1CN(c2cc3cc(NC(=O)C4CC45CCOCC5)ncc3cc2Cl)CCN1C1COCC1O (single isomer, unassigned) [Ex-2.4] )
Solution: 0.38 nM

###

# measured on: GST-tagged truncated human mutant G2019S LRRK2 (Homo sapiens, UniProt Q5S007, G2019S)
# Construct: GST-tagged truncated human mutant G2019S LRRK2; purchased Life Technologies Corporation (Carlsbad, CA)
# assay info: LRRK2 G2019S Km ATP LanthaScreen assay
# Assay type: biochemical
# experimental parameters: 134 μM ATP (Km ATP), LRRKtide substrate, mean of several tests
outcome measure: LRRK2 pIC50
# print the numeric value only

>>> print(df.to_string())
                                   compound  outcome_measure  test_result
0  COCCC(=O)Nc1cc2cc(N3CCN(C4(C)COCC4O)CC3)c(Cl)cc2cn1 (stereo not drawn)      LRRK2 pIC50         8.12
1  O=C(Nc1cc2cc(N3CCC(N4CC(F)(F)C4)CC3)c(Cl)cc2cn1)C1CC12CCOCC2 (stereo not drawn)      LRRK2 pIC50         7.93

Problem: # get_value(readout='LRRK2 pIC50', item= CC(C)C1CC(C(=O)Nc2cc3cc(N4CCN(C5(C)COCC5O)CC4)c(Cl)cc3cn2)C1 (stereo not drawn) )
Solution: 8.58

###

Quick list: IC50 per entry.
# measured on: GST-tagged truncated human mutant G2019S LRRK2 (Homo sapiens, UniProt Q5S007, G2019S)
# Construct: GST-tagged truncated human mutant G2019S LRRK2; purchased Life Technologies Corporation (Carlsbad, CA)
# assay info: LRRK2 G2019S Km ATP LanthaScreen assay
# Type: biochemical
# experimental parameters: 134 μM ATP (Km ATP), LRRKtide substrate, mean of several tests, read-out: LRRK2 pIC50 (converted)
The response must be a number in nM with no trailing unit.

Below are worked cases with known answers.
>>> print(df.to_string())
                                   compound  outcome_measure  units  test_result
0  CC1(C)CC2(CCO1)CC2C(=O)Nc1cc2cc(N3CCN(C4(C)COCC4O)CC3)c(Cl)cc2cn1 (single isomer, unassigned) [Ex-7.4]             IC50     nM        0.776
1  CC1C(C(=O)Nc2cc3cc(N4CCN(C5(C)COCC5O)CC4)c(Cl)cc3cn2)C1c1ccn(C)n1 (single isomer, unassigned)             IC50     nM       0.0813

Problem: # get_value(readout='IC50', item= CC1(C2CCOC2)CC1C(=O)Nc1cc2cc(N3CCN(C4(C)COCC4O)CC3)c(Cl)cc2cn1 (single isomer, unassigned) [Ex-10.86] )
Solution: 0.0813

Problem: # get_value(readout='IC50', item= Cc1cc2cnc(NC(=O)C3C(C)C3c3cnn(C)c3)cc2cc1N1CCN(C2(C)CCOC2)CC1 (single isomer, unassigned) [Ex-9.12] )
Solution: 0.0813

Problem: # get_value(readout='IC50', item= COC1COCC1(C)N1CCN(c2cc3cc(NC(=O)C4CC45CCOCC5)ncc3cc2Cl)CC1 (single isomer, unassigned) [Ex-5.5] )
Solution: 2.63

Problem: # get_value(readout='IC50', item= C[C@H]1CN(c2cc3cc(NC(=O)C4CC45CCOCC5)ncc3cc2Cl)CCN1C1COCC1O (single isomer, unassigned) [Ex-2.3] )
Solution: 17.4

Problem: # get_value(readout='IC50', item= O=C(Nc1cc2cc(N3CCN(C4COCC4O)CC3)c(Cl)cc2cn1)C1CC12CCOCC2 (single isomer, unassigned) [Ex-2.7] )
Solution: 380

Problem: # get_value(readout='IC50', item= CC1(C2CCOC2)CC1C(=O)Nc1cc2cc(N3CCN(C4(C)COCC4O)CC3)c(Cl)cc2cn1 (single isomer, unassigned) [Ex-10.87] )
Solution: 0.0813

Problem: # get_value(readout='IC50', item= CCC1C(C(=O)Nc2cc3cc(N4CCN(C5(C)COCC5F)CC4)c(Cl)cc3cn2)C1c1ccn(C)n1 (single isomer, unassigned) [Ex-10.52] )
Solution: 0.603

Problem: # get_value(readout='IC50', item= CC1(C2CCOC2)CC1C(=O)Nc1cc2cc(N3CCN(C4(C)COCC4O)CC3)c(Cl)cc2cn1 (single isomer, unassigned) [Ex-10.83] )
Solution: 0.525
